Test system: Escherichia coli TOP10;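 also: peptides expressed intracellularly from a pBAD plasmid library in pooled LB shake-flask culture, induced with 0.3% L-arabinose, DNA abundance read by NGS, three biological replicates, DESeq2 with apeglm shrinkage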
procedure_details: shrunken log2 fold change of peptide-encoding DNA abundance (4.5 h post-induction vs induction); higher = less antimicrobial activity (less host growth inhibition)
condition_notes: time post-induction: 4.5 h; library: site-saturation at positions 5, 18, 19, 20
Note: every record was labeled by where its shrunken log2 fold change sits among label 0 = under -0.09, label 1 = from -0.09 up to 0.02, label 2 = 0.02 and over

{"seq_string": "RRIRERPPRLPRPRPRPMKMPRP", "qualitative_label": "label 2"}
{"seq_string": "RRIRERPPRLPRPRPRPGYIPRP", "qualitative_label": "label 0"}
{"seq_string": "RRIRERPPRLPRPRPRPRKLPRP", "qualitative_label": "label 1"}
{"seq_string": "RRIRPRPPRLPRPRPRPQWEPRP", "qualitative_label": "label 2"}
{"seq_string": "RRIRARPPRLPRPRPRPSKNPRP", "qualitative_label": "label 2"}
{"seq_string": "RRIRPRPPRLPRPRPRPMWHPRP", "qualitative_label": "label 0"}
{"seq_string": "RRIRVRPPRLPRPRPRPWTWPRP", "qualitative_label": "label 0"}
{"seq_string": "RRIRYRPPRLPRPRPRPHSDPRP", "qualitative_label": "label 1"}
{"seq_string": "RRIRCRPPRLPRPRPRPHPTPRP", "qualitative_label": "label 1"}
{"seq_string": "RRIRFRPPRLPRPRPRPMPWPRP", "qualitative_label": "label 2"}
{"seq_string": "RRIRNRPPRLPRPRPRPYCFPRP", "qualitative_label": "label 0"}
{"seq_string": "RRIRFRPPRLPRPRPRPAHYPRP", "qualitative_label": "label 1"}
{"seq_string": "RRIRNRPPRLPRPRPRPELSPRP", "qualitative_label": "label 2"}
{"seq_string": "RRIRVRPPRLPRPRPRPWHFPRP", "qualitative_label": "label 1"}
